Test system: TZM-bl cells
Assay type: cell-based
Settings: CellTiter-Glo, peptide 6.5 µM, mean of n = 3 replicates
Protocol: The cell viability after addition of peptides to TZM–bl cells was studied via the CellTiter–Glo assay. To this end, 10,000 cells were seeded and on the next day serial diluted peptides were added. […] After 10 min 50 µL was transferred to white microplate and luminescence was recorded by Orion microplate luminometer. […] Figure S 2 Cell Viability normalized to 100% metabolic activity as determined by CellTiterGlo Assay of 57 representatively selected peptides from the library. […]

Substance	viability 6.5 µM
CKFKQFFNMWQ [CK13]	88.49
CKIKIQI [MG3b]	91.32
QCKFKFQF [CK9]	96.02
CKFKFQFW [TM72]	82.4
KIKIKIKIYYYY [JR7]	78.89
QCKIKQIINMWQ [EF-C (Münch Stock)]	78.3
